assay: Pharmacokinetics in rats after intravenous and oral gavage dosing, plasma LC-MS/MS; format: in vivo; settings: rat, in vivo; SD rats; 15 mg/kg oral gavage vs 1 mg/kg intravenous; read-out: Oral Bioavailability F (%)
Use 1 when the recorded bioavailability is no lower than 3%; use -1 when it is lower.

{"columns": ["Compound Smiles", "Class Assignment"],
 "data": [
  ["COc1ccc2c(=O)cc(C3CCNCC3)oc2c1O", 1],
  ["O=c1cc(C2CCNCC2)oc2c(F)c(F)ccc12", 1],
  ["[2H]c1c([2H])c([2H])c(-c2cc(=O)c3ccc(O[C@@H]4O[C@H](C(=O)O)[C@@H](O)[C@H](O)[C@H]4O)c(O)c3o2)c([2H])c1[2H]", 1],
  ["O=c1cc(C2CCNCC2)oc2c(O)c(O)ccc12", -1],
  ["O=C(O)[C@H]1O[C@@H](Oc2c(O)ccc3c(=O)cc(-c4ccccc4)oc23)[C@H](O)[C@@H](O)[C@@H]1O", 1]
]}
